Target: rat liver NQO2 (Rattus norvegicus, UniProt Q6AY80)
Sequence (Q6AY80 1-231): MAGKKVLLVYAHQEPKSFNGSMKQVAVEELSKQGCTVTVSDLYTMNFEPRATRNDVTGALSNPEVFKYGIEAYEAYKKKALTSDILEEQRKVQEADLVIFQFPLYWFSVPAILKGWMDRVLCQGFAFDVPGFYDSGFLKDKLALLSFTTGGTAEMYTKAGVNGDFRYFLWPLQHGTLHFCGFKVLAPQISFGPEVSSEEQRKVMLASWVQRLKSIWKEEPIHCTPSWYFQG

MOLECULE	Kd
CC(C)c1c(C(=O)Nc2ccccc2)c(-c2ccccc2)c(-c2ccc(F)cc2)n1CC[C@@H](O)C[C@@H](O)CC(=O)O [atorvastatin, reference compound]	~500 nM
